Test system: CCRIS mutagenicity, Ames/micronucleus/aberration tests
Assay: CCRIS mutagenicity studies
Conditions: Test System: AMES SALMONELLA TYPHIMURIUM; Strain/Indicator: TA98(1,8-DNP6); Metabolic Activation: NONE; Method: STANDARD PLATE
Activity calls are given as the source filed them. No rule for the calls is given here.
Tick one outcome: active, inactive

Check out these entries, answers already filled in.
{"columns": ["mol", "classification"],
 "data": [
  ["CN(C)CCCNc1c2ccccc2nc2ccccc12", "inactive"],
  ["CC(=O)Nc1ccc2ccc3c(O)ccc4ccc1c2c43", "inactive"],
  ["O=C(/C=C/c1ccc([N+](=O)[O-])o1)N/N=C/c1ccc([N+](=O)[O-])o1", "active"]
]}

Lookup: // param item: CN(C)CCCNc1c2ccccc2nc2cccc([N+](=O)[O-])c12 ; yields the recorded call
Found: active

---

Tested on: CCRIS mutagenicity, Ames/micronucleus/aberration tests
Assay: CCRIS mutagenicity studies
Details: Test System: AMES SALMONELLA TYPHIMURIUM; Strain/Indicator: TA100; Metabolic Activation: NONE; Method: STANDARD PLATE
From the text: The CCRIS database contains chemical records with carcinogenicity, mutagenicity, tumor promotion, and tumor inhibition test results. It was developed by the National Cancer Institute (NCI). Data are derived from studies cited in primary journals, current awareness tools, NCI reports, and other sources. Test results have been reviewed by experts in carcinogenesis and mutagenesis. CCRIS provides historical information from the years 1985 - 2011. It is no longer updated. […]
Active and inactive are the calls of the source. The rule behind the calls is not given here.
Tick one outcome: 1 = active, -1 = inactive

{"columns": ["compound", "tested-target", "classification"],
 "data": [
  ["CCCCON=O", "CCRIS mutagenicity, Ames/micronucleus/aberration tests", 1],
  ["CN(C)c1ccc(Cc2ccc(N(C)C)cc2)cc1", "CCRIS mutagenicity, Ames/micronucleus/aberration tests", -1],
  ["Oc1cc2ccccc2c2ccc3ccccc3c12", "CCRIS mutagenicity, Ames/micronucleus/aberration tests", -1],
  ["Cc1ccc(S(=O)(=O)NC(=O)Nc2ncc([N+](=O)[O-])s2)cc1", "CCRIS mutagenicity, Ames/micronucleus/aberration tests", -1],
  ["CCCOc1ccccc1C(=O)NOC(C)=O", "CCRIS mutagenicity, Ames/micronucleus/aberration tests", 1]
]}

// next entry
Lookup: // param item: CC(N)c1ccccc1.CC(N)c1ccccc1.[Cl][Pt][Cl] (stereo unspecified) ; yields the recorded call
Found: 1

---

Tested on: CCRIS mutagenicity, Ames/micronucleus/aberration tests
Test: CCRIS mutagenicity studies
Details: Test System: AMES SALMONELLA TYPHIMURIUM; Strain/Indicator: TA98; Metabolic Activation: RAT LIVER S-9, PHENOBARBITAL AND BETA-NAPHTHOFLAVONE; Method: PREINCUBATION
Activity calls are given as the source filed them. The rule behind the calls is not given here.
Tick one outcome: active, inactive

Check out these entries, answers already filled in.
{"columns": ["compound", "tested-target", "classification"],
 "data": [
  ["CCCCC(CC)COC(=O)c1ccccc1C(=O)OCC(CC)CCCC (stereo not given)", "CCRIS mutagenicity, Ames/micronucleus/aberration tests", "inactive"],
  ["O=[N+]([O-])c1cccc2c([N+](=O)[O-])cccc12", "CCRIS mutagenicity, Ames/micronucleus/aberration tests", "active"],
  ["O=C1CCCO1", "CCRIS mutagenicity, Ames/micronucleus/aberration tests", "inactive"]
]}

Lookup: // param item: Brc1c(Br)c(Br)c(Oc2c(Br)c(Br)c(Br)c(Br)c2Br)c(Br)c1Br ; yields the recorded call
Found: inactive

Lookup: // param item: C1COCCN1 ; yields the recorded call
Found: inactive

Lookup: // param item: CC(C)(C#N)N=NC(C)(C)C#N ; yields the recorded call
Found: inactive

Lookup: // param item: Cc1cccc(O)c1C ; yields the recorded call
Found: inactive

Lookup: // param item: O=C(ON=C1C=CC(=NOC(=O)c2ccccc2)C=C1)c1ccccc1 ; yields the recorded call
Found: active
